Catalogue of pIC50 values
# Experimental System: Translocator protein (Rattus norvegicus)
# Sequence (P16257 whole entry, looked up): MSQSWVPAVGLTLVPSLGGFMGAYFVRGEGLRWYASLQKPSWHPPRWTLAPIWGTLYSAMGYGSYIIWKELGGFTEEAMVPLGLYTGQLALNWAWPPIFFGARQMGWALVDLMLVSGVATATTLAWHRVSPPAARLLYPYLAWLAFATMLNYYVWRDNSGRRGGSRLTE
# Assay Procedure: Binding affinity against peripheral benzodiazepine receptor( PBR).
pIC50: −log10 of the molar value.
Endpoint Name: pIC50

> print(dat)
                                    compound  limit.sign  reported.measurement
 1               O=C1c2cccnc2CN1c1ccc(Cl)cc1           <                  6.00
 2  CCN(Cc1ccccc1)C(=O)/C=C1\c2nc3ccccc3cc2C(=O)N1c1ccc(Cl)cc1           <                  6.00
 3  CCCN(CCC)C(=O)/C=C1\c2nc3ccccc3cc2C(=O)N1c1ccc(Cl)cc1           =                  7.40
 4  CCCCCCN(CCCCCC)C(=O)CC1c2ncccc2C(=O)N1c1ccc(Cl)cc1 (stereo not given)           =                  5.80
 5  CCCCCCN(CCCCCC)C(=O)/C=C1\c2ncccc2C(=O)N1c1ccc(Cl)cc1           =                  4.48
 6  CCCN(CCC)C(=O)Cc1c(-c2ccc(Cl)cc2)nc2ccc(Cl)cn12 [ALPIDEM]           =                  8.15
 7  CCCCCCN(CCCCCC)C(=O)/C=C1\c2nc3ccccc3cc2C(=O)N1c1ccc(Cl)cc1           =                  6.82
 8  COc1ccc(N(C)C(=O)/C=C2\c3nc4ccccc4cc3C(=O)N2c2ccc(Cl)cc2)cc1           =                  8.72
 9  CN(C(=O)/C=C1\c2nc3ccccc3cc2C(=O)N1c1ccc(Cl)cc1)c1ccc(Cl)cc1           =                  7.49
10  CCCN(CCC)C(=O)/C=C1\c2ncccc2C(=O)N1c1ccc(Cl)cc1           =                  6.54
11  CCCN(CCC)C(=O)C=C1c2nc3ccccc3cc2C(=O)N1c1ccc(Cl)cc1           <                  6.00
12  CCCN(CCC)C(=O)CC1c2nc3ccccc3cc2C(=O)N1c1ccc(Cl)cc1 (stereo not given)           <                  6.00
13  CCCCCCN(CCCCCC)C(=O)CC1c2nc3ccccc3cc2C(=O)N1c1ccc(Cl)cc1 (stereo not given)           <                  6.00
14  CN(Cc1ccccc1)C(=O)/C=C1\c2nc3ccccc3cc2C(=O)N1c1ccc(Cl)cc1           <                  6.00
15  CCCN(CCC)C(=O)CC1c2ncccc2C(=O)N1c1ccc(Cl)cc1 (stereo not given)           <                  6.00

----------
Catalogue of IC50 values
# Experimental System: Translocator protein (Rattus norvegicus)
# Assay Procedure: Displacement of [3H]PK11195 from rat cerebral cortex peripheral benzodiazepine receptor (type 1)
# Assay type: tissue-based
Endpoint Name: IC50 (nM)

> print(dat)
                        structure.as.smiles  endpoint.name  reported.measurement
1  COc1ccc(N(C)C(=O)/C=C2\c3nc4ccccc4cc3C(=O)N2c2ccc(Cl)cc2)cc1           IC50                   9.8
2  CCCN(CCC)C(=O)/C=C1\c2nc3ccccc3cc2C(=O)N1c1ccc(Cl)cc1           IC50                   4.9
3  CN(C(=O)/C=C1\c2nc3ccccc3cc2C(=O)N1c1ccc(Cl)cc1)c1ccc(Cl)cc1           IC50                   2.4
